Data origin, for the record: patent US20260242419A1

target: Recombinant human IL-1β (BioLegend 579404) (human, UniProt P01584 117-269); experiment: cell-based or functional assay
Starred links: 1 amine or outer side, 2 acyl side, 3 side chain; linkers in the order of their positions; H or OH if unused. Non-standard residues stand in square brackets, D forms with d. No end group written: not given here. dProc3CH24Pal = (2R,3S)-3-(4-pyridylmethyl)pyrrolidine-2-carboxylic acid, O=C([C@H]1[C@@H](Cc2ccncc2)CCN1[*:1])[*:2]; Trp(βS-Me,4-F) = C[C@@H](c1c[nH]c2cccc(F)c12)[C@H](N)C(=O)O; Bip(4'-COOH) = N[C@@H](Cc1ccc(-c2ccc(C(=O)O)cc2)cc1)C(=O)O; dPro(4R-Bzl(4-F)) = O=C(O)[C@H]1C[C@@H](Cc2ccc(F)cc2)CN1; Ala(morpholin-4-yl) = N[C@@H](CN1CCOCC1)C(=O)O; Phe(4-COOH) = N[C@@H](Cc1ccc(C(=O)O)cc1)C(=O)O; Nva(5,5,5-F3) = N[C@@H](CCC(F)(F)F)C(=O)O; Pro(cis-4-F) = O=C(O)[C@@H]1C[C@H](F)CN1; d(αMeD) = C[C@@](N)(CC(=O)O)C(=O)O; 4Pal = N[C@@H](Cc1ccncc1)C(=O)O; d3Pal = N[C@H](Cc1cccnc1)C(=O)O; Dab = NCC[C@H](N)C(=O)O; Aib = CC(C)(N)C(=O)O
// reported MRC5 IC50 per item

[
  {
    "BINDER": "cyclo([Bip(4'-COOH)][4Pal][Phe(4-COOH)]G[Pro(cis-4-F)][Trp(βS-Me,4-F)][Aib]EW[Aib][Ala(morpholin-4-yl)]Q[Dab]G[dPro(4R-Bzl(4-F))]) (ring closure inferred) [SEQ ID NO: 123]",
    "MRC5 IC50, nM": 0.017
  },
  {
    "BINDER": "[Bip(4'-COOH)][4Pal][Phe(4-COOH)]G[Pro(cis-4-F)][Trp(βS-Me,4-F)][Aib]SW[d(αMeD)][Nva(5,5,5-F3)]Q[Dab]G[dProc3CH24Pal] (lactam (positions not given here); also: macrolactam, ring places not given here) [SEQ ID NO: 232]",
    "MRC5 IC50, nM": 0.022
  },
  {
    "BINDER": "cyclo([Bip(4'-COOH)][4Pal][Phe(4-COOH)]G[Pro(cis-4-F)][Trp(βS-Me,4-F)][Aib]SW[d(αMeD)][d3Pal]Q[Dab]G[dProc3CH24Pal]) (ring closure inferred) [SEQ ID NO: 240]",
    "MRC5 IC50, nM": 0.025
  }
]
